Test system: NCI-H226 lung
Assay: NCI tumour cell line growth inhibition, 48 h
assay.metric: TGI

- compound: "CSc1nc2c(c(=O)[nH]1)N=C1c3ccccc3C(=O)C1C(c1ccc(F)cc1)N2 (centres undefined)"
  assay.metric: "TGI"
  reading: "45.6 µM"
- compound: "N#CC(C(=O)/C(=N/N)C(C#N)c1ccc(Cl)cc1)c1ccc(Cl)cc1 (centres undefined)"
  assay.metric: "TGI"
  reading: "> 100 µM"
- compound: "CC(=O)OC1C(=O)C(O)C(C)OC1O[C@@H]1C[C@@]2(C)[C@@H]3CC=C4[C@@H](C[C@H](O)C(=O)C4(C)C)[C@]3(C)C(=O)C[C@]2(C)[C@H]1[C@@](C)(O)C(=O)/C=C/C(C)(C)O (some centres undefined)"
  assay.metric: "TGI"
  reading: "2 µM"
- compound: "CCOC(=O)COC1=Nc2cc(OC)c(OC)c3nc(Cl)cc(c23)C1=O"
  assay.metric: "TGI"
  reading: "28.6 µM"

###

Test system: K-562 leukemia
Test: NCI tumour cell line growth inhibition, 48 h
assay.metric: TGI

- molecule: "COC(CC1(CCNc2ccccc2)C(=O)N(COCC[Si](C)(C)C)c2ccccc21)OC (centres undefined)"
  reading: "> 100 µM"
- molecule: "O=C1C(Cl)C(c2cccc(O)c2)N1n1cnc2ccccc2c1=O (centres undefined)"
  reading: "> 100 µM"
- molecule: "Cc1cc(C)c(C#N)c(SC(=S)NC(=O)c2ccccc2)n1"
  reading: "> 100 µM"
- molecule: "CC(CN(CP(=O)([O-])[O-])CP(=O)([O-])[O-])N(CP(=O)([O-])[O-])CP(=O)([O-])[O-].N.N.[Pt+2] (centres undefined)"
  reading: "> 100 µM"
- molecule: "CN(C)CCCn1c2c(c3cnccc3c1=O)C(=O)c1ccccc1-2"
  reading: "12.5 µM"
- molecule: "COc1ccc(C[C@H]2COC(=O)[C@@H]2Cc2ccccc2)cc1OC"
  reading: "> 100 µM"
- molecule: "CC[C@]1(O)CC2CN(CCc3c([nH]c4ccccc34)[C@@](C(=O)OC)(c3cc4c(cc3OC)N(C)[C@H]3[C@@](O)(C(=O)OC)[C@H](OC(C)=O)[C@]5(CC)C=CCN6CC[C@]43[C@@H]65)C2)C1 (some centres undefined)"
  reading: "2.26 µM"
- molecule: "O=C(O)CNc1c2ccccc2nc2ccccc12"
  reading: "> 100 µM"
- molecule: "CC(=O)c1cc(S(=O)(=O)c2ccc(O)c(C(C)=O)c2)ccc1O"
  reading: "> 100 µM"

###

Tested on: COLO 205 colon
Test: NCI tumour cell line growth inhibition, 48 h
GI50 listing for selected compounds.

- compound: "Cc1cn(C2CC(F)C(CO)O2)c(=O)[nH]c1=O (centres undefined)"
  GI50: "> 100 µM"
- compound: "CC[C@]1(O)CC2CN(CCc3c([nH]c4ccccc34)[C@@](C(=O)OC)(c3cc4c(cc3OC)N(C)[C@H]3[C@@](O)(C(=O)OC)[C@H](OC(C)=O)[C@]5(CC)C=CCN6CC[C@]43[C@@H]65)C2)C1 (some centres undefined)"
  GI50: "< 0.005 µM"
- compound: "COP(=O)(OC)C(NC(c1ccccc1)c1ccccc1)c1ccc2c(c1)OCO2 (centres undefined)"
  GI50: "52.2 µM"
- compound: "O=Cc1c(-c2cc(O)ccc2O)nc2sccn12"
  GI50: "32.3 µM"
- compound: "COc1ccc(/C=C/C(=O)c2cc3c(N)c(C(=O)Nc4ccccc4Cl)sc3nc2C)cc1"
  GI50: "17.2 µM"
- compound: "CC(=O)OC[C@H]1O[C@@H](n2ccc(=O)[nH]c2=O)[C@H](OC(C)=O)[C@@H]1OC(C)=O"
  GI50: "> 100 µM"
- compound: "CN(C)CCCn1c2c(c3cnccc3c1=O)C(=O)c1ccccc1-2"
  GI50: "0.269 µM"
- compound: "Nc1ccccc1C#C/C=C\\C#Cc1ccccc1C(F)(F)F"
  GI50: "1.92 µM"
- compound: "OCc1cn(Cc2cccc(Cl)c2)c2ccccc12"
  GI50: "0.432 µM"

###

Test system: SF-268 CNS
Assay: NCI tumour cell line growth inhibition, 48 h
So basically: TGI at 20 µM or higher? That is Fulfilled. Lower than 20 µM? That is Not fulfilled.

- molecule: "CN1CCCC(OC(=O)c2cc3cc(CCl)ccc3oc2=O)C1 (centres undefined)"
  group: "Fulfilled"
- molecule: "C[C@@H]1C=C(CCCCCCCCCCC[C@H](O)[C@@H]2CCC(=O)O2)C(=O)O1"
  group: "Fulfilled"
- molecule: "Cc1ccc(Cl)c2c(=O)cc(-c3ccccc3)[nH]c12"
  group: "Fulfilled"
- molecule: "CCn1c(O)c(C(=O)NC(C)c2ccc([N+](=O)[O-])cc2)c(=O)n(CC)c1=S (centres undefined)"
  group: "Not fulfilled"
- molecule: "CC(C)Oc1cc2c(cc1O)CC[C@@H]1[C@@H]2CC[C@]2(C)[C@@H](O)CC[C@@H]12"
  group: "Fulfilled"
- molecule: "CN(C)CCCn1c2c(c3cnccc3c1=O)C(=O)c1ccccc1-2"
  group: "Not fulfilled"
- molecule: "CC(CN(CP(=O)([O-])[O-])CP(=O)([O-])[O-])N(CP(=O)([O-])[O-])CP(=O)([O-])[O-].N.N.[Pt+2] (centres undefined)"
  group: "Fulfilled"
- molecule: "Cc1cccc(C(C)(C)C)c1NC(=O)C(=O)C(C(=O)/C=C\\c1ccccc1)C1OC(=O)c2ccccc21 (centres undefined)"
  group: "Fulfilled"
- molecule: "COc1ccccc1-[n+]1cc(-c2ccc(-c3ccccc3)cc2)n2c1CCCCC2"
  group: "Not fulfilled"

###

Test system: SK-MEL-28 melanoma
Assay: NCI tumour cell line growth inhibition, 48 h; in the data active means GI50 below about 0.43 µM; inactive means the rest
Classes used: 1 (active), -1 (inactive)

- compound: "CSc1nc2c(c(=O)[nH]1)N=C1c3ccccc3C(=O)C1C(c1ccc(F)cc1)N2 (centres undefined)"
  group: -1
- compound: "COc1c(O)c2c(c3cc(C(=O)N4CCc5c4c(O)c(OC)c4[nH]c(C(=O)N6CC7CC78C6=CC(=O)c6[nH]cc(C)c68)cc54)[nH]c13)CCN2C(N)=O (centres undefined)"
  group: 1
- compound: "Oc1ccc(/C=N\\Nc2ccccn2)c(O)c1"
  group: -1
- compound: "CC1=C(/C=C/C(C)=C\\C=C\\C(C)=C\\C(=O)Nc2ccc3c(c2)OCO3)C(C)(C)CCC1"
  group: -1

###

TGI listing for selected compounds.
Tested on: TK-10 renal
Test: NCI tumour cell line growth inhibition, 48 h

- compound: "C[C@]12CCC3[C@@H](C[C@@H]4SC(Nc5ccccc5)=N[C@@]45CC(=O)CC[C@]35C)[C@@H]1CCC2=O (stereo partly specified)"
  measurement.unit: "µM"
  readout.relation: "="
  TGI: 54.8
- compound: "COC(=O)NC(Nc1ccc(C)cc1)(C(F)(F)F)C(F)(F)F"
  measurement.unit: "µM"
  readout.relation: ">"
  TGI: 100
- compound: "COCCN(C(=O)c1ccccc1)C1CCC(=O)c2[nH]c3ccccc3c21 (stereo unspecified)"
  measurement.unit: "µM"
  readout.relation: "="
  TGI: 35.5
- compound: "COc1ccc(C[C@H]2COC(=O)[C@@H]2Cc2ccccc2)cc1OC"
  measurement.unit: "µM"
  readout.relation: ">"
  TGI: 100
- compound: "CCCCn1c2cc(OCc3cn(-c4ccc(Cl)cc4)nn3)ccc2c2ccnc(C)c21"
  measurement.unit: "µM"
  readout.relation: "="
  TGI: 14.1
- compound: "CC(O)/C=C/C(CCC(C)CO)C(C)C (stereo unspecified)"
  measurement.unit: "µM"
  readout.relation: ">"
  TGI: 100

###

Test system: EKVX NSCLC
Experiment: NCI tumour cell line growth inhibition, 48 h
TGI listing for selected compounds.

- compound: "COC(C[C@H]1CCCC[C@]1(O)/C(=C\\CO[Si](C(C)C)(C(C)C)C(C)C)Sc1ccccc1)OC"
  TGI: "> 100 µM"
- compound: "COC(=O)c1c(C)cccc1C1CN=NC12Cc1cccc(C)c1C2=O (stereo not given)"
  TGI: "> 100 µM"
- compound: "CC(=O)Nc1ccc(/C=C/[N+](=O)[O-])cc1"
  TGI: "12.9 µM"
- compound: "CN(c1ccc(Cl)cc1)S(=O)(=O)c1ccccc1"
  TGI: "> 100 µM"
- compound: "C=C1CN=C(Nc2ccc(F)cc2F)S1"
  TGI: "> 100 µM"
- compound: "O=S(=O)([O-])c1cccc2cccc(N=Cc3ccccc3[O-])c12.O=S(=O)([O-])c1cccc2cccc(N=Cc3ccccc3[O-])c12.[O]=[U]=[O]"
  TGI: "> 100 µM"
- compound: "CCOC(=O)NC(OCc1ccccc1)(C(=O)OC)C(F)(F)F (stereo not given)"
  TGI: "> 100 µM"
- compound: "O=c1n(C2CCCCC2)c(=C(Cl)Cl)c(=C(Cl)Cl)n1C1CCCCC1"
  TGI: "> 100 µM"
- compound: "CCOc1ccccc1N=NC1C(=O)N(C(=O)CC(=O)Nc2ccccc2OC)N=C1C (stereo not given)"
  TGI: "21.8 µM"
- compound: "Cc1ccc2c(c1)nc(C(=O)c1ccco1)c(C(F)(F)F)[n+]2[O-]"
  TGI: "> 100 µM"
